B1: ARL6IP1 (parent)
chain: YLDPSVLSGVSCFVMFLCLADYLV

variants of: B1; assay: protein stability index of a GFP-peptide fusion (GPS, HEK-293T) (PSI 1-6); higher = more stable; conditions: c terminus: a fixed tail appended;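 further: lentivirally expressed fusions sorted by FACS into six bins by GFP to DsRed ratio, PSI derived from sequencing read proportions per bin multiplied by bin number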
Answer each item with its documented protein stability index.
// no unit string in output, number only

Record `V6C` , field protein stability index: 3.38

Entry under test: `L23N` . Its protein stability index was 3.21

protein stability index in this record for `F13Y` : 3.73

Entry under test: `Y22C` . Its protein stability index was 3.08

For reference, reported protein stability index for `C12G` stands at 3.53

Recorded result, `Y22W` , protein stability index: 3.48

According to the records, this variant `Y1R` displays protein stability index of 2.81

Quick note, protein stability index for `V6S` landed at 2.79

Summary for this variant, `S5N` : protein stability index is 2.26

Input `C12V` . Output protein stability index: 3.66

Sample `Y22V` ; protein stability index observed: 2.14
